Test system: HBL-100
Test details: Cytotoxicity against human HBL100 cells assessed as reduction in cell viability after 70 hrs by alamar blue assay
Type: cell-based
Measurement parameters: HBL-100, 70 h
Quantity kind: pIC50
Scale for pIC50: -log10 of concentration given in mol/L; no unit attached.

# Molecule, Assayed target, Assay value
rows = [
    ("[O-][S+](CC#Cc1ccccc1C#CCO)c1ccccc1 (centres undefined)", "HBL-100", 4.45),
    ("COc1cccc2c1C(=O)c1c(O)c3c(c(O)c1C2=O)C[C@@](O)(C(=O)CO)C[C@@H]3O[C@H]1C[C@H](N)[C@H](O)[C@H](C)O1 [DOXORUBICIN]", "HBL-100", 5.07),
]

Now let's try a different one.
Dear colleague, I am looking for the recorded pIC50 of the following molecule: [O-][S+](CC#Cc1cccnc1C#CCO)c1c(F)c(F)c(F)c(F)c1F (centres undefined)
4.57

* * *

Test details: Ratio of IC50 for antiproliferative activity against human HBL100 cells to IC50 for cytotoxicity against human HBL100 cells
Format: cell-based, HBL-100
Measurement parameters: read-out: Ratio IC50
Recorded measurements of selectivity ratio, one per entry
Please respond with just the number, no unit label.

# Compound, Quantity kind, Assay value
rows = [
    ("[O-][S+](CC#Cc1cccnc1C#CCO)c1c(F)c(F)c(F)c(F)c1F (stereo not drawn)", "selectivity ratio", 19.3),
]

Now let's try a different one.
Dear colleague, I am looking for the recorded selectivity ratio of the following compound: [O-][S+](CC#Cc1ccccc1C#CCO)c1ccccc1 (stereo not drawn)
1.8

* * *

System: MIA PaCa-2
Test details: Cytotoxicity against human MIAPaCa2 cells assessed as reduction in cell viability after 70 hrs by alamar blue assay
Format: cell-based
Measurement parameters: MIA PaCa-2, 70 h
Quantity kind: IC50
Answer shape: numeric part, then the unit.

A selection of reference data follows.
# Compound, Assay value
data = [
    ("[O-][S+](CC#Cc1cccnc1C#CCO)c1c(F)c(F)c(F)c(F)c1F (centres undefined)", "20.5 µM"),
    ("COc1cccc2c1C(=O)c1c(O)c3c(c(O)c1C2=O)C[C@@](O)(C(=O)CO)C[C@@H]3O[C@H]1C[C@H](N)[C@H](O)[C@H](C)O1 [DOXORUBICIN]", "3.1 µM"),
    ("[O-][S+](CC#Cc1ccccc1C#CCO)c1ccccc1 (centres undefined)", "124 µM"),
]

Now let's try a different one.
Dear colleague, I am looking for the recorded IC50 of the following compound: COc1ccc(NS(=O)(=O)c2c(F)c(F)c(F)c(F)c2F)cc1F [BATABULIN]
47.3 µM

* * *

System: A549
Test details: Antiproliferative activity against human A549 cells preincubated for 4 hrs followed by 0.6 J/cm2 light irradiation for 10 mins and measured after 70 hrs by alamar blue assay
Format: functional, cell-based
Measurement parameters: A549, light or radiation study
Quantity kind: pIC50
Scale for pIC50: -log10 of concentration given in mol/L; no unit attached.

Dear colleague, I am looking for the recorded pIC50 of the following compound: [O-][S+](CC#Cc1cccnc1C#CCO)c1c(F)c(F)c(F)c(F)c1F (stereo unspecified)
6.10

* * *

Recorded measurements of IC50, one per entry
Test system: HUVEC
Test details: Antiproliferative activity against HUVEC after 70 hrs by alamar blue assay
Assay type: cell-based
Measurement parameters: Homo sapiens
Just the number in µM, nothing appended.

# Compound, Assay value
measured = [
    ("[O-][S+](CC#Cc1cccnc1C#CCO)c1c(F)c(F)c(F)c(F)c1F (centres undefined)", 0.6),
]

Dear colleague, I am looking for the recorded IC50 of the following compound: COc1cccc2c1C(=O)c1c(O)c3c(c(O)c1C2=O)C[C@@](O)(C(=O)CO)C[C@@H]3O[C@H]1C[C@H](N)[C@H](O)[C@H](C)O1
0.15

Dear colleague, I am looking for the recorded IC50 of the following compound: [O-][S+](CC#Cc1ccccc1C#CCO)c1ccccc1 (centres undefined)
79.8

Dear colleague, I am looking for the recorded IC50 of the following compound: COc1ccc(NS(=O)(=O)c2c(F)c(F)c(F)c(F)c2F)cc1F
6.3

* * *

Test details: Antiproliferative activity against human GERL3.0 cells preincubated for 4 hrs followed by 0.6 J/cm2 light irradiation for 10 mins and measured after 70 hrs by alamar blue assay
Type: functional, cell-based
Measurement parameters: light or radiation study
Quantity kind: pIC50
Scale for pIC50: -log10 of concentration given in mol/L; no unit attached.

Dear colleague, I am looking for the recorded pIC50 of the following molecule: [O-][S+](CC#Cc1cccnc1C#CCO)c1c(F)c(F)c(F)c(F)c1F (stereo unspecified)
6.22

* * *

Test details: Ratio of IC50 for antiproliferative activity against human BEAS2B cells to IC50 for cytotoxicity against human BEAS2B cells
Assay type: cell-based, BEAS-2B
Measurement parameters: read-out: Ratio IC50
Recorded measurements of selectivity ratio, one per entry

Dear colleague, I am looking for the recorded selectivity ratio of the following compound: [O-][S+](CC#Cc1cccnc1C#CCO)c1c(F)c(F)c(F)c(F)c1F (stereo not drawn)
18.6

Dear colleague, I am looking for the recorded selectivity ratio of the following compound: COc1ccc(NS(=O)(=O)c2c(F)c(F)c(F)c(F)c2F)cc1F
> 3.2

Dear colleague, I am looking for the recorded selectivity ratio of the following compound: [O-][S+](CC#Cc1ccccc1C#CCO)c1ccccc1 (stereo not drawn)
2.8

* * *

System: HUVEC
Test details: Cytotoxicity against HUVEC assessed as reduction in cell viability after 70 hrs by alamar blue assay
Assay type: cell-based
Measurement parameters: Homo sapiens
Quantity kind: IC50
Answer shape: numeric part, then the unit.

A selection of reference data follows.
# Compound, IC50
measured = [
    ("[O-][S+](CC#Cc1ccccc1C#CCO)c1ccccc1 (centres undefined)", "66.2 µM"),
    ("COc1cccc2c1C(=O)c1c(O)c3c(c(O)c1C2=O)C[C@@](O)(C(=O)CO)C[C@@H]3O[C@H]1C[C@H](N)[C@H](O)[C@H](C)O1 [DOXORUBICIN]", "0.48 µM"),
    ("COc1ccc(NS(=O)(=O)c2c(F)c(F)c(F)c(F)c2F)cc1F [BATABULIN]", "16.4 µM"),
]

Now let's try a different one.
Field: IC50 (HUVEC). Entry: [O-][S+](CC#Cc1cccnc1C#CCO)c1c(F)c(F)c(F)c(F)c1F (centres undefined)
8.8 µM

Hey, just so you know, these numbers are from ChEMBL document CHEMBL4196030.
